Values were extracted from ChEMBL document CHEMBL1157804.

assay: Cytotoxicity against african green monkey Vero cells at 18.52 uM after 72 hrs by MTT assay; type: cell-based; conditions: chlorocebus sabaeus, read-out: INH
Reported values of cytotoxicity at 72 h, 18.52 µM for individual entries

{"columns": ["CPD SMILES", "cytotoxicity at 72 h, 18.52 µM / %"],
 "data": [
  ["COc1cc(O)c2c(c1)/C=C/C[C@H](O)[C@H](O)[C@H](O)CCC[C@H](C)OC2=O", 10.4],
  ["COc1cc(O)c2c(c1)[C@@H]1O[C@H]([C@H](O)/C=C/C[C@H](C)OC2=O)[C@@H](O)C[C@H]1O", 0],
  ["COc1cc(O)c2c(c1)[C@@H]1O[C@@H]1C[C@H](O)[C@H](O)[C@@H](O)/C=C/C[C@H](C)OC2=O", 0],
  ["COc1cc(O)c2c(c1)[C@@H]1O[C@@H]1C[C@H](O)[C@H](O)[C@H](O)/C=C/C[C@H](C)OC2=O", 0],
  ["COc1cc(O)c2c(c1)[C@@H](O)[C@H](C[C@H](O)[C@H](O)[C@@H](O)/C=C/C[C@H](C)O)OC2=O", 15.6],
  ["C[C@H]1C/C=C/[C@@H](O)[C@@H](O)CC/C=C/c2cc(O)cc(O)c2C(=O)O1", 12.5],
  ["COc1cc(O)c2c(c1)/C=C/C[C@H](O)[C@H](O)[C@@H](O)CCC[C@H](C)OC2=O", 3.4]
]}

###

experiment: Cytotoxicity against african green monkey Vero cells at 6.17 uM after 72 hrs by MTT assay; assay type: cell-based; settings: chlorocebus sabaeus, read-out: INH
Reported values of cytotoxicity at 72 h, 6.17 µM for individual entries

{"columns": ["CPD SMILES", "UNIT", "cytotoxicity at 72 h, 6.17 µM"],
 "data": [
  ["COc1cc(O)c2c(c1)/C=C/C[C@H](O)[C@H](O)[C@@H](O)CCC[C@H](C)OC2=O", "%", 0],
  ["COc1cc(O)c2c(c1)[C@@H]1O[C@@H]1C[C@H](O)[C@H](O)[C@H](O)/C=C/C[C@H](C)OC2=O", "%", 0],
  ["C[C@H]1C/C=C/[C@@H](O)[C@@H](O)CC/C=C/c2cc(O)cc(O)c2C(=O)O1", "%", 3.4],
  ["COc1cc(O)c2c(c1)[C@@H]1O[C@H]([C@H](O)/C=C/C[C@H](C)OC2=O)[C@@H](O)C[C@H]1O", "%", 0],
  ["COc1cc(O)c2c(c1)[C@@H](O)[C@H](C[C@H](O)[C@H](O)[C@@H](O)/C=C/C[C@H](C)O)OC2=O", "%", 2.3],
  ["COc1cc(O)c2c(c1)/C=C/C[C@H](O)[C@H](O)[C@H](O)CCC[C@H](C)OC2=O", "%", 2.3],
  ["COc1cc(O)c2c(c1)[C@@H]1O[C@@H]1C[C@H](O)[C@H](O)[C@@H](O)/C=C/C[C@H](C)OC2=O", "%", 0]
]}

###

test: Cytotoxicity against african green monkey Vero cells at 166.67 uM after 72 hrs by MTT assay; assay type: cell-based; conditions: chlorocebus sabaeus, read-out: INH
Reported values of cytotoxicity at 72 h, 166.67 µM for individual entries

{"columns": ["CPD SMILES", "cytotoxicity at 72 h, 166.67 µM (%)"],
 "data": [
  ["COc1cc(O)c2c(c1)[C@@H]1O[C@H]([C@H](O)/C=C/C[C@H](C)OC2=O)[C@@H](O)C[C@H]1O", 46.3],
  ["COc1cc(O)c2c(c1)[C@@H]1O[C@@H]1C[C@H](O)[C@H](O)[C@@H](O)/C=C/C[C@H](C)OC2=O", 30.2],
  ["COc1cc(O)c2c(c1)[C@@H](O)[C@H](C[C@H](O)[C@H](O)[C@@H](O)/C=C/C[C@H](C)O)OC2=O", 43.2],
  ["COc1cc(O)c2c(c1)/C=C/C[C@H](O)[C@H](O)[C@@H](O)CCC[C@H](C)OC2=O", 50.2],
  ["COc1cc(O)c2c(c1)/C=C/C[C@H](O)[C@H](O)[C@H](O)CCC[C@H](C)OC2=O", 58.5],
  ["C[C@H]1C/C=C/[C@@H](O)[C@@H](O)CC/C=C/c2cc(O)cc(O)c2C(=O)O1", 56.3],
  ["COc1cc(O)c2c(c1)[C@@H]1O[C@@H]1C[C@H](O)[C@H](O)[C@H](O)/C=C/C[C@H](C)OC2=O", 29.6]
]}

###

Reported values of cytotoxicity at 72 h, 55.56 µM for individual entries
experiment: Cytotoxicity against african green monkey Vero cells at 55.56 uM after 72 hrs by MTT assay; format: cell-based; details: chlorocebus sabaeus, read-out: INH

{"columns": ["MOLECULE", "cytotoxicity at 72 h, 55.56 µM [%]"],
 "data": [
  ["COc1cc(O)c2c(c1)[C@@H]1O[C@@H]1C[C@H](O)[C@H](O)[C@@H](O)/C=C/C[C@H](C)OC2=O [AIGIALOMYCIN B]", 2.3],
  ["COc1cc(O)c2c(c1)[C@@H](O)[C@H](C[C@H](O)[C@H](O)[C@@H](O)/C=C/C[C@H](C)O)OC2=O [AIGIALOMYCIN F]", 20.3],
  ["COc1cc(O)c2c(c1)[C@@H]1O[C@H]([C@H](O)/C=C/C[C@H](C)OC2=O)[C@@H](O)C[C@H]1O [PAECILOMYCIN B]", 5.6],
  ["C[C@H]1C/C=C/[C@@H](O)[C@@H](O)CC/C=C/c2cc(O)cc(O)c2C(=O)O1 [AIGIALOMYCIN D]", 30.2],
  ["COc1cc(O)c2c(c1)[C@@H]1O[C@@H]1C[C@H](O)[C@H](O)[C@H](O)/C=C/C[C@H](C)OC2=O [PAECILOMYCIN A]", 0],
  ["COc1cc(O)c2c(c1)/C=C/C[C@H](O)[C@H](O)[C@@H](O)CCC[C@H](C)OC2=O [PAECILOMYCIN E]", 23.5],
  ["COc1cc(O)c2c(c1)/C=C/C[C@H](O)[C@H](O)[C@H](O)CCC[C@H](C)OC2=O [PAECILOMYCIN F]", 25.7]
]}
